B1: LINE1-full (parent)
chain: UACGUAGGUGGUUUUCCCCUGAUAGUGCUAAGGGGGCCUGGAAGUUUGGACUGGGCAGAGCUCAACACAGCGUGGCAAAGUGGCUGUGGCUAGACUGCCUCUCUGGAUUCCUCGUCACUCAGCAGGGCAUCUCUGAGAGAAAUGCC

# Variants of: B1
# Run description: self-cleavage, relative activity (ratio to wild type); higher = more cleavage; in vitro, sequencing; the parent is a self-cleaving ribozyme
// values below are reported self-cleavage

The measured self-cleavage associated with `UACGUAGGUGGUUUACCCCUGAUAGUGCUAAGGGGGCCUGGAAGUUUGGACUGGGCGGAGCUCAACACAGCGUGGCAAAGUGGCUGUGGCUAGACUGCCUCUCUGGAUUCCUCGUCACUCAGCAGGGCAUCUCUGAGAGAAAUGCC` reads 0.68

The measured self-cleavage associated with `UACGUAGGUGGUUUUCCCCUGAUAGUGCUAAGGGGGCCUUGAAGUUUGGACUGGGCAGAGCUCAACACAGCGUGGCAAAGUGGCUGUGGCUAGACUGCCUCUCUGGAUUCCUCGUCACUCAGCAGGGCACCUCUGAGAGAAAUGCC` reads 1.32

The measured self-cleavage associated with `UACGUAGGUGGUUUUCCCCUGAUUGUGCUAAGGGGGCCUGGAAGCUUGGACUGGGCAGAGCUCAACACAGCGUGGCAAAGUGGCUGUGGCUAGACUGCCUCUCUGGAUUCCUCGUCACUCAGCAGGGCAUCUCUGAGAGAAAUGCC` reads 1.19

The measured self-cleavage associated with `UACGUAGGUGGUUUUCCCCUGAUAGUGCUAAAGGGGCCUGGAAGUUUGGACUGGGCAGAGCUCAACACAGCGUGGCAAAGUGGCUGUGGCUAGACUGCCUCUCUGGAUUCCUCGUCACUCAGCAGGGCACCUCUGAGAGAAAUGCC` reads 1.26

The measured self-cleavage associated with `UACGUAGGUGAUUUUCCCCUGAUAGUGCUAAGGGGGCCUGGAAGUUUGGACUGGGCAGAGCUCAACACAGCGUGGCAAGGUGGCUGUGGCUAGACUGCCUCUCUGGAUUCCUCGUCACUCAGCAGGGCAUCUCUGAGAGAAAUGCC` reads 0.56

The measured self-cleavage associated with `UACGUAGGUGGUUUUCCCCUGAUAGAGCUAAGGGGGCCUGGAAGGUUGGACUGGGCAGAGCUCAACACAGCGUGGCAAAGUGGCUGUGGCUAGACUGCCUCUCUGGAUUCCUCGUCACUCAGCAGGGCAUCUCUGAGAGAAAUGCC` reads 0.6

The measured self-cleavage associated with `UACGUAGGUGGUUUUCCCCUGAUGGUGCUAAGGGGGCCUGGGAGUUUGGACUGGGCAGAGCUCAACACAGCGUGGCAAAGUGGCUGUGGCUAGACUGCCUCUCUGGAUUCCUCGUCACUCAGCAGGGCAUCUCUGAGAGAAAUGCC` reads 1.11

The measured self-cleavage associated with `UACGUAGGUGGUUUUCCCCUGAUAGUGCUAAGGGGGCCUGGAAGUUUGGACGGGGCAGAGCUCAACACAGCGUGGCAAAGUGGCUGUGGCUAGACUGCCUCUCUGGAUUCCUCGCCACUCAGCAGGGCAUCUCUGAGAGAAAUGCC` reads 1.71

The measured self-cleavage associated with `UACGUAGGUGGUUUUCCCCUGAUAGUGCUAAGGGGGCCUGGAAGUUUGGACUGGGCAGAGCCCAACACAGCGUGGCAAAGUGGCUGUGGCUAGACUGCCUCUCUGGAUUCCUCGUCACUUAGCAGGGCAUCUCUGAGAGAAAUGCC` reads 0.06

The measured self-cleavage associated with `UACGCAGGUGGUUUUCCCCUGAUAGUGCUAAGGGGGCCUGGAAGUUUGGACUGGGCAGAGCUCAUCACAGCGUGGCAAAGUGGCUGUGGCUAGACUGCCUCUCUGGAUUCCUCGUCACUCAGCAGGGCAUCUCUGAGAGAAAUGCC` reads 0.26

The measured self-cleavage associated with `UACGUAGGUGGUUUUCCCCUGAUAGUGCUAAGGGGGCCUGGAAGUUCGGACUGGGCAGAGCUCAACACAGCGUGGCAAAGUGGCUGUGGCUAGACUGCCUCUCUGGAUUCAUCGUCACUCAGCAGGGCAUCUCUGAGAGAAAUGCC` reads 1.79

The measured self-cleavage associated with `UACGUAGGUGGUUUUCCCCUGAUAGUGCUAAGGGGACCUGGGAGUUUGGACUGGGCAGAGCUCAACACAGCGUGGCAAAGUGGCUGUGGCUAGACUGCCUCUCUGGAUUCCUCGUCACUCAGCAGGGCAUCUCUGAGAGAAAUGCC` reads 1.07
